testMethodNotes: in vitro
conditionDescription: human
metric: CC50

Tell me the measured CC50 of COC(=O)N[C@H](C(=O)N1CCC[C@H]1c1nc(-c2ccc(-c3ccc(-c4c[nH]c([C@@H]5CCCN5C(=O)[C@@H](NC(=O)OC)C(C)C)n4)cc3)cc2)c[nH]1)C(C)C , please.
> 25 nM
